Target: human leukocyte elastase (hLE) (Homo sapiens, UniProt P08246)
Construct: Neutrophils (1.4 billion) were isolated from whole blood obtained from a single healthy laboratory donor; from tissue; host or cells: neutrophils from whole blood of a single healthy donor
Sequence (P08246 30-247 limits assumed): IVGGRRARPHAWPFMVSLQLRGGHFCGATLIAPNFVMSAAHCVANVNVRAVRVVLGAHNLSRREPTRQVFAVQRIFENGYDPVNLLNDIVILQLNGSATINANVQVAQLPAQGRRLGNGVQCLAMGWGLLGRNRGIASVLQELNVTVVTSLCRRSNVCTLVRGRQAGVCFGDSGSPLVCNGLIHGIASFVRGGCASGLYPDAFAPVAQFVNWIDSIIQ
Assay: In-vitro inhibition of hLE (cleavage of MeOSuc-AAPV-NA)
Format: biochemical
Non-standard residues stand in square brackets, D forms with d. Residues, ends and D or L forms follow the SMILES beside them. *: point of attachment. Cbz = O=C(OCc1ccccc1)*
This listing pairs compounds with measured Ki.
// note: answer is a bare numeric in µM

Solved cases below.
Compound	Output Unit	Ki
CC[C@H](C)[C@H](NC(=O)[C@@H](Cc1c[nH]cn1)NC(=O)[C@H](NC(=O)[C@@H]1CCCN1C(=O)[C@H](C)NC(=O)[C@@H](NC(=O)[C@@H](NC(=O)[C@@H](N)C(C)C)[C@@H](C)O)C(C)C)C(C)C)C(=O)O [Peptide 8] (H-VTVAP[dV][dH]I-OH; N-terminus and C-terminus assumed)	µM	490
CC[C@H](C)[C@H](NC(=O)[C@@H](Cc1c[nH]cn1)NC(=O)[C@H](NC(=O)[C@H]1CCCN1C(=O)[C@H](C)NC(=O)[C@@H](NC(=O)[C@@H](NC(=O)[C@@H](N)C(C)C)[C@@H](C)O)C(C)C)C(C)C)C(=O)O [Peptide 28] (H-VTVA[dP][dV][dH]I-OH; N-terminus and C-terminus assumed)	µM	2300

Next item in the queue.
Report Ki for CC[C@H](C)[C@H](NC(=O)[C@H](Cc1c[nH]cn1)NC(=O)[C@@H](NC(=O)[C@@H]1CCCN1C(=O)[C@H](C)NC(=O)[C@@H](NC(=O)[C@@H](NC(=O)[C@@H](NC(=O)[C@H](Cc1ccccc1)NC(=O)OCc1ccccc1)C(C)C)[C@@H](C)O)C(C)C)C(C)C)C(=O)O [Peptide 21] (Cbz-FVTVAPVHI-OH) please.
380
